- measuredTarget: T1, AAV9
- T1 construct: also called adeno-associated virus serotype 9
- assayExplanation: SPR, AAV on CM5 chip;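 also: surface plasmon resonance with AAV amine-coupled to the chip as ligand, nanobodies injected as analyte over a concentration series, rate constants and affinity fitted from binding curves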
propertyMeasured: kon (M⁻¹ s⁻¹)

[
  {
    "binder": "A4-045 (VHH) VHH: VQLQESGGGLVQPGGSLRLSCAASGSSFSINTMGWYRQAPGKQRELVAAVTRGGVTNYADSVKGRFTISRDNAKNTVYLQMNSLRPEDTAVYYCHVDEVRQSSWTTSNLWGQGTQVTVSS",
    "unitsSymbol": "M⁻¹ s⁻¹",
    "measuredNumber": 7190
  },
  {
    "binder": "A4-021 (VHH) VHH: VQLQESGGGLVQAGGSLRLSCAASGSTFSINTMGWYRQAPGKQRELVATITRGGNTNYADSVKGRFTISRDNAKNTVYLQMNSLRPEDTAVYYCHVDEVRQSSWTTSNIWGQGTQVTVSS",
    "unitsSymbol": "M⁻¹ s⁻¹",
    "measuredNumber": 74700
  },
  {
    "binder": "A4-001 (VHH) VHH: VQLQESGGGLVQPGGSLRLSCAASGRSFSINTMGWYRQAPGKQRELVATVTRGGSTNYAGSVKGRFTISRDNAKNTVYLQMNSLRPEDTAVYYCHIDEVRQSSWTTSNIWGQGTQVTVSS",
    "unitsSymbol": "M⁻¹ s⁻¹",
    "measuredNumber": 81600
  },
  {
    "binder": "A4-004 (VHH) VHH: VQLQESGGGLVQPGGSLRLSCAASGSRFSINTMGWYRQAPGKQRELVAAVTRGGSTNYAGSVKGRFTISRDNAKNTVYLQMNSLRPEDTAVYYCHIDEVRQSSWTTSNIWGQGTQVTVSS",
    "unitsSymbol": "M⁻¹ s⁻¹",
    "measuredNumber": 180000
  }
]
